protocol description: Stability in human plasma
Format: in vitro ADME
study conditions: 2 μM, 37° C., 24 h
value kind: % degradation in 24 h when incubated with human plasma (%)
Only the number, expressed in %, is required.

Example compounds with recorded % degradation in 24 h when incubated with human plasma:
- compound: "CCc1cc(OC)ccc1-c1ccc(CC(NC(=O)[C@H](CC(=O)O)NC(=O)[C@H](CO)NC(=O)[C@@H](NC(=O)[C@H](Cc2ccccc2)NC(=O)[C@@H](NC(=O)CNC(=O)[C@H](CCC(N)=O)NC(=O)C(C)(C)NC(=O)[C@@H](N)Cc2c[nH]cn2)[C@@H](C)O)[C@@H](C)O)C(=O)NC(Cc2ccc(-c3ccccc3C(F)(F)F)cc2)C(N)=O)cc1 (single isomer, unassigned)"
  value reported: "00"
- compound: "CCc1cc(OC)ccc1-c1ccc(CC(NC(=O)[C@H](CC(=O)O)NC(=O)[C@H](CO)NC(=O)[C@@H](NC(=O)[C@H](Cc2ccccc2)NC(=O)[C@@H](NC(=O)CNC(=O)[C@H](CCC(N)=O)NC(=O)C(C)(C)NC(=O)[C@@H](N)Cc2c[nH]cn2)[C@@H](C)O)[C@@H](C)O)C(=O)NC(Cc2ccc(-c3ccccc3C)nc2)C(N)=O)cc1 (single isomer, unassigned)"
  value reported: "00"
- compound: "CCc1cc(OC)ccc1-c1ccc(CC(NC(=O)[C@H](CC(=O)O)NC(=O)[C@H](CO)NC(=O)[C@@H](NC(=O)[C@H](Cc2ccccc2)NC(=O)[C@@H](NC(=O)CNC(=O)[C@H](CCC(N)=O)NC(=O)[C@H](C)NC(=O)[C@@H](N)Cc2c[nH]cn2)[C@@H](C)O)[C@@H](C)O)C(=O)NC(Cc2ccc(-c3ccccc3F)cc2)C(N)=O)cc1 (single isomer, unassigned)"
  value reported: 70
- compound: "CCc1cc(OC)ccc1-c1ccc(CC(NC(=O)[C@H](CC(=O)O)NC(=O)[C@H](CO)NC(=O)[C@@H](NC(=O)[C@H](Cc2ccccc2)NC(=O)[C@@H](NC(=O)CNC(=O)[C@H](CCC(N)=O)NC(=O)[C@H](C)NC(=O)[C@@H](N)Cc2c[nH]cn2)[C@@H](C)O)[C@@H](C)O)C(=O)NC(Cc2ccc(-c3ccccc3C)nc2)C(N)=O)cc1 (single isomer, unassigned)"
  value reported: 71

Here's the next entry for you.
Entry CCc1cc(OC)ccc1-c1ccc(CC(NC(=O)[C@H](CC(=O)O)NC(=O)[C@H](CO)NC(=O)[C@@H](NC(=O)[C@H](Cc2ccccc2)NC(=O)[C@@H](NC(=O)CNC(=O)[C@H](CCC(N)=O)NC(=O)C(C)(C)NC(=O)[C@@H](N)Cc2c[nH]cn2)[C@@H](C)O)[C@@H](C)O)C(=O)NC(Cc2ccc(-c3ccccc3C)cc2)C(N)=O)cc1 (single isomer, unassigned) ; % degradation in 24 h when incubated with human plasma = 00

====

target of assay: Human GLP-1 receptor (Homo sapiens, UniProt P43220)
Construct: The full-length cDNA was cloned in pcDNA3.1(+); expressed in transfected cells
Sequence (P43220 24-463): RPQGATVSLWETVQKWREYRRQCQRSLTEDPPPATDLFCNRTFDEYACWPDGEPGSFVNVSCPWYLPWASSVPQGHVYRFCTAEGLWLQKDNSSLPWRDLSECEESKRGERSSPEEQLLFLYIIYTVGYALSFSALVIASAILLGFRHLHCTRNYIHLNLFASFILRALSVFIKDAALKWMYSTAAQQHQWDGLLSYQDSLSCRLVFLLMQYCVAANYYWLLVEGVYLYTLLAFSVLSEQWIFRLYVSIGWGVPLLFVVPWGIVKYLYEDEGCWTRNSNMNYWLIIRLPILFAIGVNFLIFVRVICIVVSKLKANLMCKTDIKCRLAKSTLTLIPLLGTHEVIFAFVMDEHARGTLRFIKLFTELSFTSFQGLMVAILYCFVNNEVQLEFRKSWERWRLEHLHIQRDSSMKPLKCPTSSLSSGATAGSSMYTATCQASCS
Format: cell-based
study conditions: 100 nM test compound
value kind: Human GLP-1 R activity (cAMP release), % activity with respect to control (%)
Dear colleague, please return just the value in %, with no unit written.

Solved cases below.
- compound: "CCc1cc(OC)ccc1-c1ccc(CC(NC(=O)[C@H](CC(=O)O)NC(=O)[C@H](CO)NC(=O)[C@@H](NC(=O)[C@H](Cc2ccccc2)NC(=O)[C@@H](NC(=O)CNC(=O)[C@H](CCC(N)=O)NC(=O)C(C)(C)NC(=O)[C@@H](N)Cc2c[nH]cn2)[C@@H](C)O)[C@@H](C)O)C(=O)NC(Cc2ccc(-c3ccccc3F)cc2)C(N)=O)cc1 (single isomer, unassigned)"
  value reported: 99
- compound: "CCc1cc(OC)ccc1-c1ccc(CC(NC(=O)[C@H](CC(=O)O)NC(=O)[C@H](CO)NC(=O)[C@@H](NC(=O)C(C)(Cc2ccccc2F)NC(=O)[C@@H](NC(=O)CNC(=O)[C@H](CCC(N)=O)NC(=O)C2(NC(=O)[C@@H](N)Cc3c[nH]cn3)CC2)[C@@H](C)O)[C@@H](C)O)C(=O)NC(Cc2ccc(-c3ccccc3C)nc2)C(N)=O)cc1 (single isomer, unassigned)"
  value reported: 99

// next item, Human GLP-1 R activity (cAMP release), % activity with respect to control requested
Lab note: CCc1cc(OC)ccc1-c1ccc(CC(NC(=O)[C@H](CC(=O)O)NC(=O)[C@H](CO)NC(=O)[C@@H](NC(=O)C(C)(Cc2ccccc2F)NC(=O)[C@@H](NC(=O)CNC(=O)[C@H](CCC(N)=O)NC(=O)C2(NC(=O)[C@@H](N)Cc3c[nH]cn3)CC2)[C@@H](C)O)[C@@H](C)O)C(=O)NC(Cc2ccc(-c3ccccc3F)cc2)C(N)=O)cc1 (single isomer, unassigned) gave Human GLP-1 R activity (cAMP release), % activity with respect to control of 99
